Origin of measurements: ChEMBL document CHEMBL1145844

// Ki lookup, one value per entry
# assaySystem: Opioid receptors; mu & delta (Homo sapiens, UniProt P41143+P35372)
# testSummary: Ratio of mu/delta-opioid receptors Binding affinity
# Format: protein assay
The reply should be a number, written without any unit.

Would you please look over these solved cases?
smilesRepresentation	assaySystem	numericReadout
COc1ccc2c(c1O)[C@]13CCN(C)C(C2)[C@]12CCC(=O)[C@H]3/C(=C(\C)c1ccccc1)C2	Opioid receptors; mu & delta (Homo sapiens, UniProt P41143+P35372)	0.8
CN1CC[C@]23c4c5ccc(O)c4O[C@@]2(C)c2[nH]c4ccccc4c2C[C@@]3(C/C=C/c2ccccc2)C1C5	Opioid receptors; mu & delta (Homo sapiens, UniProt P41143+P35372)	3.5
CC(C)=CC[C@@]12Cc3c([nH]c4ccccc34)[C@]3(C)Oc4c(O)ccc5c4[C@]13CCN(C)C2C5	Opioid receptors; mu & delta (Homo sapiens, UniProt P41143+P35372)	4.9

(Q) Supply reported Ki belonging to this compound: "COc1ccc2c(c1O)[C@]13CCN(C)C(C2)[C@@]12C/C(=C\c1ccccc1)[C@@H]3c1[nH]c3ccccc3c1C2"
(A) 0.4
